Each entry below lists one item and its recorded pEC50 value.
Molecular target: human MC1R (Homo sapiens)
Sequence (Q01726 whole entry): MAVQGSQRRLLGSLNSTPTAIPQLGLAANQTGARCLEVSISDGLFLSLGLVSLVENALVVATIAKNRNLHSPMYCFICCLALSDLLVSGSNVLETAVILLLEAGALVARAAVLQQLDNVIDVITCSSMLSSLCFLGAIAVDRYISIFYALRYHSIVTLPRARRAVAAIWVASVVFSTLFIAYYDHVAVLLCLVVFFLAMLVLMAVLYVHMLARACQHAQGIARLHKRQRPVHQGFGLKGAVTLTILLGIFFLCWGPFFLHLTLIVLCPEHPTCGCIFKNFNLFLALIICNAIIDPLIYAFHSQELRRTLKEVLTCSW
Test: cAMP assay (LANCE) in T-Rex-293 cells expressing MC1R
Settings: cAMP assay; mean (± SEM) of at least three independent experiments; read-out: EC50 hMC1R cAMP
pEC50: −log10 of the molar value.
readoutName: pEC50

• CN1C(=O)[C@H]2N[C@@H](c3ccc(cc3)C(=O)NCCCC[C@@H](C(=O)NCC(N)=O)NC(=O)[C@H](CC(N)=O)NC(=O)[C@H](Cc3ccccc3)NC(=O)[C@H](Cc3ccccc3)NC(=O)[C@H](CCCNC(=N)N)NC(=O)[C@@H]1Cc1ccccc1)[C@H]1C(=O)N(c3ccccc3)C(=O)[C@H]12 [J3-major*, [ II-FRFFNK ]G] = 4.85
• C[C@@H]1NC(=O)[C@H](CC(N)=O)NC(=O)[C@H](Cc2ccccc2)NC(=O)[C@H](Cc2ccccc2)NC(=O)[C@H](CCCNC(=N)N)NC(=O)[C@H](Cc2ccccc2)N(C)C(=O)[C@@H]2N[C@H](c3ccc(cc3)C(=O)NCCCC[C@@H](C(=O)N[C@@H](Cc3ccc(O)cc3)C(N)=O)NC1=O)[C@@H]1C(=O)N(C)C(=O)[C@@H]12 [F1-minor*, [ I-FRFFNAK ]Y] = 5.00
• COc1cc(N2C(=O)[C@@H]3[C@H](C2=O)[C@H]2N[C@@H]3c3ccc(cc3)C(=O)NCCCC[C@@H](C(=O)NCC(N)=O)NC(=O)[C@H](CC(N)=O)NC(=O)[C@@H](Cc3ccccc3)NC(=O)[C@@H](Cc3ccccc3)NC(=O)[C@H](CCCNC(=N)N)NC(=O)[C@H](Cc3ccccc3)N(C)C2=O)cc(OC)c1OC [K5-major, [XI-FRffNK ]G] = < 5.00
• CN1C(=O)[C@@H]2N[C@H](c3ccc(cc3)C(=O)NCCCC[C@@H](C(=O)NCC(N)=O)NC(=O)[C@H](CC(N)=O)NC(=O)[C@H](Cc3ccccc3)NC(=O)[C@H](Cc3ccccc3)NC(=O)[C@H](CCCNC(=N)N)NC(=O)[C@@H]1Cc1ccccc1)[C@@H]1C(=O)N(c3ccccc3)C(=O)[C@@H]12 [J3-minor*, [ II-FRFFNK ]G] = < 4.00
• COc1ccc(N2C(=O)[C@@H]3[C@H](C2=O)[C@H]2N[C@@H]3C(=O)N(C)[C@@H](Cc3ccccc3)C(=O)N[C@@H](CCCNC(=N)N)C(=O)N[C@H](Cc3ccccc3)C(=O)N[C@H](Cc3ccccc3)C(=O)N[C@@H](CC(N)=O)C(=O)N[C@H](C(=O)NCC(N)=O)CCCCNC(=O)c3ccc2cc3)cc1 [K4-minor, [III-FRffNK ]G] = < 4.00
• CN1C(=O)[C@H]2N[C@@H](c3ccc(cc3)C(=O)NCCCC[C@@H](C(=O)NCC(N)=O)NC(=O)[C@H](CC(N)=O)NC(=O)[C@@H](Cc3ccccc3)NC(=O)[C@@H](Cc3ccccc3)NC(=O)[C@H](CCCNC(=N)N)NC(=O)[C@@H]1Cc1ccccc1)[C@H]1C(=O)N(c3ccccc3)C(=O)[C@H]12 [K3-minor, [II-FRffNK ]G] = < 5.00

---

Molecular target: human MC3R (Homo sapiens, UniProt P41968)
Sequence (P41968 whole entry): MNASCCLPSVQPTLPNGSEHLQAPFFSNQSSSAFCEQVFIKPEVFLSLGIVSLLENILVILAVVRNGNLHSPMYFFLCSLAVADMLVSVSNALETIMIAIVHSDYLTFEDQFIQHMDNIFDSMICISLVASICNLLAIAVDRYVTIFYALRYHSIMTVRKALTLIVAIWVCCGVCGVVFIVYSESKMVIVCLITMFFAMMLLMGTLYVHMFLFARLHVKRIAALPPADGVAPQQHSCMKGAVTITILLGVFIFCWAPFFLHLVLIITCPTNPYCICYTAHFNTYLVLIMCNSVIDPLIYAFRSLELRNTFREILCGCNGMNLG
Experiment: cAMP assay (LANCE) in T-Rex-293 cells expressing MC3R
Details: cAMP assay; mean (± SEM) of at least three independent experiments; read-out: EC50 hMC3R cAMP
Where a SMILES comes first, the peptide text is derived from it.
readoutName: EC50

- C[C@@H]1NC(=O)[C@H](CC(N)=O)NC(=O)[C@@H](Cc2ccccc2)NC(=O)[C@@H](Cc2ccccc2)NC(=O)[C@H](CCCNC(=N)N)NC(=O)[C@@H](NC(=O)[C@@H](N)Cc2ccc(O)cc2)CSSC[C@@H](C(=O)N[C@@H](Cc2ccc(O)cc2)C(N)=O)NC(=O)[C@H](Cc2ccccc2)NC1=O [compound 29, Y[CRffNAFC]Y, reference compound] (HELM PEPTIDE1{Y.C.R.[dF].[dF].N.A.F.C.Y.[am]}$PEPTIDE1,PEPTIDE1,2:R3-9:R3$$$V2.0): > 100 µM
- COc1ccc(N2C(=O)[C@@H]3[C@H](C2=O)[C@H]2N[C@@H]3C(=O)N(C)[C@@H](Cc3ccccc3)C(=O)N[C@@H](CCCNC(=N)N)C(=O)N[C@H](Cc3ccccc3)C(=O)N[C@H](Cc3ccccc3)C(=O)N[C@@H](CC(N)=O)C(=O)N[C@H](C(=O)NCC(N)=O)CCCCNC(=O)c3ccc2cc3)cc1 [K4-minor, [III-FRffNK ]G]: > 100 µM
- C[C@@H]1NC(=O)[C@H](CC(N)=O)NC(=O)[C@H](Cc2ccccc2)NC(=O)[C@H](Cc2ccccc2)NC(=O)[C@H](CCCNC(=N)N)NC(=O)[C@H](Cc2ccccc2)N(C)C(=O)[C@@H]2N[C@H](c3ccc(cc3)C(=O)NCCCC[C@@H](C(=O)N[C@@H](Cc3ccc(O)cc3)C(N)=O)NC(=O)[C@H](Cc3ccccc3)NC1=O)[C@@H]1C(=O)N(C)C(=O)[C@@H]12 [B1-major, [ I-FRFFNAFK ]Y]: > 100 µM
- COc1ccc(N2C(=O)[C@@H]3[C@H](C2=O)[C@H]2N[C@@H]3c3ccc(cc3)C(=O)NCCCC[C@@H](C(=O)NCC(N)=O)NC(=O)[C@H](CC(N)=O)NC(=O)[C@@H](Cc3ccccc3)NC(=O)[C@@H](Cc3ccccc3)NC(=O)[C@H](CCCNC(=N)N)NC(=O)[C@H](Cc3ccccc3)N(C)C2=O)cc1 [K4-major, [III-FRffNK ]G]: 6.4 µM
- C[C@@H]1NC(=O)[C@H](CC(N)=O)NC(=O)[C@@H](Cc2ccccc2)NC(=O)[C@@H](Cc2ccccc2)NC(=O)[C@H](CCCNC(=N)N)NC(=O)[C@H](Cc2ccccc2)N(C)C(=O)[C@@H]2N[C@H](c3ccc(cc3)C(=O)NCCCC[C@@H](C(=O)NCC(N)=O)NC(=O)[C@H](Cc3ccccc3)NC1=O)[C@@H]1C(=O)N(C)C(=O)[C@@H]12 [C4-major, [I-FRffNAFK ]G]: > 100 µM
- CN1C(=O)[C@H]2N[C@@H](c3ccc(cc3)C(=O)NCCCC[C@@H](C(=O)NCC(N)=O)NC(=O)[C@H](CC(N)=O)NC(=O)[C@@H](Cc3ccccc3)NC(=O)[C@@H](Cc3ccccc3)NC(=O)[C@H](CCCNC(=N)N)NC(=O)[C@@H]1Cc1ccccc1)[C@H]1C(=O)N(c3ccccc3)C(=O)[C@H]12 [K3-minor, [II-FRffNK ]G]: > 10 µM

---

Biological target: human MC5R (Homo sapiens)
Sequence (P33032 whole entry): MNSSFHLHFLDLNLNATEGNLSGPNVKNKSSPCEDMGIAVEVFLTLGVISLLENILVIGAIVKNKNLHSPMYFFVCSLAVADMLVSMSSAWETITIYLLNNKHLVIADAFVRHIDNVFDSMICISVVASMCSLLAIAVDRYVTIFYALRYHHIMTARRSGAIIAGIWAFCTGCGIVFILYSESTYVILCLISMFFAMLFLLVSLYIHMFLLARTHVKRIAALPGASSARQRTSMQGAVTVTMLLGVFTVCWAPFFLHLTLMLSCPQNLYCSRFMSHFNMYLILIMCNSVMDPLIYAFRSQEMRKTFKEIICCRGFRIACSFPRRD
Each entry below lists one item and its recorded IC50 value.
readoutName: IC50 (µM)

- C[C@@H]1NC(=O)[C@H](CC(N)=O)NC(=O)[C@@H](Cc2ccccc2)NC(=O)[C@@H](Cc2ccccc2)NC(=O)[C@H](CCCNC(=N)N)NC(=O)[C@H](Cc2ccccc2)N(C)C(=O)[C@@H]2N[C@H](c3ccc(cc3)C(=O)NCCCC[C@@H](C(=O)NCC(N)=O)NC(=O)[C@H](Cc3ccccc3)NC1=O)[C@@H]1C(=O)N(C)C(=O)[C@@H]12 [C4-major, [I-FRffNAFK ]G]: 36
- CN1C(=O)[C@H]2N[C@@H](c3ccc(cc3)C(=O)NCCCC[C@@H](C(N)=O)NC(=O)[C@H](Cc3ccccc3)NC(=O)[C@H](Cc3ccccc3)NC(=O)[C@H](CCCNC(=N)N)NC(=O)[C@@H]1Cc1ccccc1)[C@H]1C(=O)N(c3ccccc3)C(=O)[C@H]12 [N3-major*, [II-FRFFK ]]: 74
- CN1C(=O)[C@H]2N[C@@H](c3ccc(cc3)C(=O)NCCCC[C@@H](C(=O)N[C@@H](Cc3ccc(O)cc3)C(N)=O)NC(=O)[C@H](CC(N)=O)NC(=O)[C@H](Cc3ccccc3)NC(=O)[C@H](Cc3ccccc3)NC(=O)[C@H](CCCNC(=N)N)NC(=O)[C@@H]1Cc1ccccc1)[C@H]1C(=O)N(c3ccccc3)C(=O)[C@H]12 [J2-major, [ II-FRFFNK ]Y]: 11
- CC(=O)N[C@@H](CCCNC(=N)N)C(=O)N[C@H]1CSSC[C@@H](C(N)=O)NC(=O)[C@H](Cc2c[nH]c3ccccc23)NC(=O)[C@H](CCCNC(=N)N)NC(=O)[C@@H](Cc2ccccc2)NC(=O)[C@H](Cc2c[nH]cn2)NC(=O)[C@@H](C)NC1=O [RM493, reference compound]: 1.8

---

Details: the molecule shown is the open-chain precursor; other bond; 34-membered ring; CH(OMe)3/Et3N; then 6/LiBr/Et3N; DMF; THF; resin; 25.0 °C; with chain assembly
readoutName: ring closure, yield after HPLC (%)

* H-Gly-MePhe-Ala-His-Ala-Ser-Asn-Lys(4-formylbenzoyl)-Gly-resin? | 3
* H-Gly-dMePhe-Asp-Ile-Asn-Asn-Asn-Lys(4-formylbenzoyl)-Gly-resin | 5
* H-Gly-Phe-Asp-Ile-Asn-Asn-Asn-Lys(4-formylbenzoyl)-Gly-resin? | 2
* H-Gly-Pro-Asp-Ile-Asn-Asn-Asn-Lys(4-formylbenzoyl)-Gly-resin? | 3
* H-Gly-MePhe-Arg-dPhe-dPhe-Asn-Ala-Lys(4-formylbenzoyl)-Tyr-resin? | 2
* H-Gly-MePhe-Arg-Phe-Phe-Asn-Ala-Lys(4-formylbenzoyl)-Tyr-resin? | 3
